MEASUREMENT_TARGET: Bromodomain-containing protein 4 (Homo sapiens, UniProt O60885, Y97A)
ASSAY: Displacement of Alexa Fluor 647 labelled ligand from His6-tagged BRD4 BD2 (1 to 477 residues)/BD1 Y97A mutant (unknown origin) after 30 mins by TR-FRET assay
EXPERIMENTAL_ENDPOINT: IC50

Worked examples, 2 compounds total:
CN(C)S(=O)(=O)c1cc(NC(=O)CN2C(=O)NC3(CCCc4ccccc43)C2=O)ccc1Cl (centres undefined); > 50.1 µM
CC1(C2CC2)NC(=O)N(CC(=O)Nc2ccc(C(F)(F)F)c(S(=O)(=O)N3CCCCC3)c2)C1=O (racemic); 25.1 µM

Problem: Give the value of IC50 reported for the following: Cc1ccccc1C(=O)NCC(=O)Nc1ccc(C)c(S(=O)(=O)N2CCCCCC2)c1
Solution: > 50.1 µM

Problem: Give the value of IC50 reported for the following: Cc1ccc(NC(=O)CN2C(=O)NC(C)(C)C2=O)cc1S(=O)(=O)N1CCCCCC1
Solution: > 50.1 µM

Problem: Give the value of IC50 reported for the following: CC1(C2CC2)NC(=O)N(CC(=O)Nc2ccc(Cl)c(S(=O)(=O)N3CCCCC3)c2)C1=O (stereo in doubt; 19)
Solution: > 50.1 µM

Problem: Give the value of IC50 reported for the following: CCN(CC)S(=O)(=O)c1cc(NC(=O)CN2C(=O)NC(C)(c3ccccc3)C2=O)ccc1C (centres undefined)
Solution: 39.8 µM

Problem: Give the value of IC50 reported for the following: CC1CCCN(S(=O)(=O)c2cc(NC(=O)CN3C(=O)CNC3=O)ccc2Br)C1 (centres undefined)
Solution: 31.6 µM

Problem: Give the value of IC50 reported for the following: Cc1ccc(NC(=O)CN2C(=O)NC(Cc3ccccc3)C2=O)cc1S(=O)(=O)N1CCCCC1 (centres undefined)
Solution: > 50.1 µM

Problem: Give the value of IC50 reported for the following: O=C(CNC(=O)C1CCCCC1)Nc1ccc(Cl)c(S(=O)(=O)N2CCCCC2)c1
Solution: > 50.1 µM
